// provenance: ChEMBL document CHEMBL1909046

Biological target: UniProtKB Q690N0
Sequence (Q690N0 whole entry): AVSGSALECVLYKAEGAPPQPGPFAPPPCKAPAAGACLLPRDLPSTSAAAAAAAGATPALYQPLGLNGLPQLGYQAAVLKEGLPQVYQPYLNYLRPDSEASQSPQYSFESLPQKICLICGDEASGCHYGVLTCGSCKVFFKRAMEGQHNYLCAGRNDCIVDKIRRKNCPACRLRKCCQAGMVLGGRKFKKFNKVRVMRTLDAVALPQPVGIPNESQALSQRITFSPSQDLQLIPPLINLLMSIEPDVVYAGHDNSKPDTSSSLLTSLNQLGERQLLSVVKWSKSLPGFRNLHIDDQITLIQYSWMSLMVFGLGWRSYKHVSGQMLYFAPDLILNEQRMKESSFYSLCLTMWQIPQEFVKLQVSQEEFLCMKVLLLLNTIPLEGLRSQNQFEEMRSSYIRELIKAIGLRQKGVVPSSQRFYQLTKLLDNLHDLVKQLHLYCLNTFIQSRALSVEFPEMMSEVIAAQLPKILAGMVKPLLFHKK
Experiment: DRUGMATRIX: Progesterone radioligand binding (ligand: [3H] R-5020)
Format: tissue-based, Uterus
Details: Not Active = under 50% inhibition at 10 µM; read-out: Ki
pKi: −log10 of the molar value.
Please note: t applies when pKi is 7 or greater, and f applies otherwise.

Item `C[C@]12CC[C@@H]3c4ccc(O)cc4CC[C@H]3[C@@H]1CC[C@@H]2O` with pKi of 7 or above?
f

Item CC1(C)O[C@@H]2C[C@H]3[C@@H]4C[C@H](F)C5=CC(=O)C=C[C@]5(C)[C@@]4(F)[C@@H](O)C[C@]3(C)[C@]2(C(=O)CO)O1 [FLUOCINOLONE ACETONIDE] with pKi of 7 or above?
t

Item C#C[C@]1(OC(C)=O)CC[C@H]2[C@@H]3CCC4=CC(=O)CC[C@@H]4[C@H]3CC[C@@]21C [NORETHINDRONE ACETATE] with pKi of 7 or above?
t

Item `C#C[C@]1(O)CC[C@H]2[C@@H]3CCc4cc(OC)ccc4[C@H]3CC[C@@]21C` with pKi of 7 or above?
f

Item CC1(C)O[C@@H]2C[C@H]3[C@@H]4C[C@H](F)C5=CC(=O)CC[C@]5(C)[C@H]4[C@@H](O)C[C@]3(C)[C@]2(C(=O)CO)O1 [FLURANDRENOLIDE] with pKi of 7 or above?
t

Item C[C@]12CC[C@@H]3c4ccc(OC(=O)c5ccccc5)cc4CC[C@H]3[C@@H]1CC[C@@H]2O [ESTRADIOL BENZOATE] with pKi of 7 or above?
f

Item CC1(C)O[C@@H]2C[C@H]3[C@@H]4C[C@H](F)C5=CC(=O)C=C[C@]5(C)[C@H]4[C@@H](O)C[C@]3(C)[C@]2(C(=O)CO)O1 [FLUNISOLIDE] with pKi of 7 or above?
t

Now look at this one.
Item `CC/C(=C(/CC)c1ccc(O)cc1)c1ccc(O)cc1` with pKi of 7 or above?
f

====

Lab note: IC50 readings collected with Cytochrome P450 2C19 (Homo sapiens, UniProt P33261) for the following molecules.
Sequence (P33261 whole entry): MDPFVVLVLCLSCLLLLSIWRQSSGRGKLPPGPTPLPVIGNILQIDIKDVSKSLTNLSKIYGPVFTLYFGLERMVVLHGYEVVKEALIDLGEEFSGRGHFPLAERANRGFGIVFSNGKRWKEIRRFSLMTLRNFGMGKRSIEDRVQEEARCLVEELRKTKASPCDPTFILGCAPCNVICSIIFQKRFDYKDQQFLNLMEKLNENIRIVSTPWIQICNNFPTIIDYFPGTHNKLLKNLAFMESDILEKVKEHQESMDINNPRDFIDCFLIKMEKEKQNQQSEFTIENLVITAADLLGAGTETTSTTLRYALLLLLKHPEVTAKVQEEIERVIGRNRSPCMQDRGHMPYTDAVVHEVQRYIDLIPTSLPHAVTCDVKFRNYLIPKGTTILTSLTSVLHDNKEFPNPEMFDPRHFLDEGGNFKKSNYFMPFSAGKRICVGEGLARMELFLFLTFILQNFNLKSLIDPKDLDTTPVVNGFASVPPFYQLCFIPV
Field format: number, assumed nM, no unit text.

Recorded IC50, per entry:
State the recorded IC50 for this entry: CCOC(=O)C1=C(C)NC(C)=C(C(=O)OC)C1c1cccc([N+](=O)[O-])c1 (stereo not given) [NITRENDIPINE]
3000

State the recorded IC50 for this entry: C[C@](O)(CS(=O)(=O)c1ccc(F)cc1)C(=O)Nc1ccc(C#N)c(C(F)(F)F)c1 [(R)-BICALUTAMIDE]
1000

State the recorded IC50 for this entry: C#C[C@]1(OC(C)=O)CC[C@H]2[C@@H]3CCC4=CC(=O)CC[C@@H]4[C@H]3CC[C@@]21C [NORETHINDRONE ACETATE]
800

State the recorded IC50 for this entry: `Cc1ccccc1C(=O)N1CCC(Cc2ccccc2)CC1`
600

--- query ---
State the recorded IC50 for this entry: `COc1ccccc1C(=O)N1CCC(Cc2ccccc2)CC1`
800

====

target: Melanocortin receptor 3 (Homo sapiens); type: cell membranes, Membrane; conditions: hek293; note: in other assays of this panel Not Active means under 50% inhibition at 10 µM
Sequence (P41968 whole entry): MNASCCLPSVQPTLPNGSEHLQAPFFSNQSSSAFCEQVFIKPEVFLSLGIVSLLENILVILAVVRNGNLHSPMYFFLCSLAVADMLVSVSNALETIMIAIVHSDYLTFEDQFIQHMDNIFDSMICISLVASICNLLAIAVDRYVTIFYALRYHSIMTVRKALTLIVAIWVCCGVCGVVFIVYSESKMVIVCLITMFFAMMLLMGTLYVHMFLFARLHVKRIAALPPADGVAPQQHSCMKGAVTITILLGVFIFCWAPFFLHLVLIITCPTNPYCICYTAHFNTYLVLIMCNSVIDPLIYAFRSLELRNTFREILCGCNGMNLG
test-readout: IC50

Recorded IC50, per entry:
State the recorded IC50 for this entry: `CCC1=C[C@@H]2CN(C1)Cc1c([nH]c3ccccc13)[C@@](C(=O)OC)(c1cc3c(cc1OC)N(C)[C@H]1[C@@](O)(C(=O)OC)[C@H](OC(C)=O)[C@]4(CC)C=CCN5CC[C@]31[C@@H]54)C2`
Not Active

State the recorded IC50 for this entry: `O=C1CC[C@H](N2C(=O)c3ccccc3C2=O)C(=O)N1`
Not Active

State the recorded IC50 for this entry: `CCc1c2c(nc3ccc(OC(=O)N4CCC(N5CCCCC5)CC4)cc13)-c1cc3c(c(=O)n1C2)COC(=O)[C@]3(O)CC`
Not Active

State the recorded IC50 for this entry: `CC[C@@H](CO)NCCN[C@@H](CC)CO`
Not Active

State the recorded IC50 for this entry: COc1cccc2c1C(=O)c1c(O)c3c(c(O)c1C2=O)C[C@@](O)(C(=O)CO)C[C@@H]3O[C@H]1C[C@H](N)[C@@H](O)[C@H](C)O1 [EPIRUBICIN]
Not Active

State the recorded IC50 for this entry: `O=S(=O)([O-])CCS.[Na+]`
Not Active

State the recorded IC50 for this entry: `COc1ccc2c(c1)c(CC(=O)O)c(C)n2C(=O)c1ccc(Cl)cc1`
Not Active

State the recorded IC50 for this entry: [Cl-].[Cl-].[Zn+2] [ZINC CHLORIDE]
Not Active

State the recorded IC50 for this entry: `CC(=O)Nc1cccc(O)c1`
Not Active

State the recorded IC50 for this entry: Cc1ccc(S(=O)(=O)NC(=O)NN2CC3CCCC3C2)cc1 (stereo not given) [GLICLAZIDE]
Not Active

New cases:
State the recorded IC50 for this entry: CC(C)Cc1ccc(C(C)C(=O)O)cc1 (stereo not given)
Not Active

State the recorded IC50 for this entry: `O=C(O)Cc1ccccc1Nc1c(Cl)cccc1Cl`
Not Active

State the recorded IC50 for this entry: `Cc1cc2cc3c(C)cc(=O)oc3c(C)c2o1`
Not Active

State the recorded IC50 for this entry: CC(C)NCC(O)COc1cccc2ccccc12 (stereo not given)
Not Active

State the recorded IC50 for this entry: COCCOC(=O)C1=C(C)NC(C)=C(C(=O)OC(C)C)C1c1cccc([N+](=O)[O-])c1 (stereo not given)
Not Active

State the recorded IC50 for this entry: `COc1ccccc1C(=O)N1CCC(Cc2ccccc2)CC1`
Not Active

====

test: DRUGMATRIX: Sigma2 radioligand binding (ligand: [3H] Ifenprodil); type: cell membranes, Rattus norvegicus, Wistar, Brain, Membrane; conditions: Not Active = under 50% inhibition at 10 µM
test-readout: IC50

Recorded IC50, per entry:
State the recorded IC50 for this entry: CC(C)(Oc1ccc(C2CCCc3ccccc32)cc1)C(=O)O (centres undefined)
Not Active

State the recorded IC50 for this entry: `CC[C@@H](CO)NCCN[C@@H](CC)CO`
Not Active

State the recorded IC50 for this entry: `CN(C)/N=N/c1[nH]cnc1C(N)=O`
Not Active

State the recorded IC50 for this entry: CCCN(CCC)C(=O)C(CCC(=O)O)NC(=O)c1ccccc1 (centres undefined) [PROGLUMIDE]
Not Active

State the recorded IC50 for this entry: C[C@](O)(CS(=O)(=O)c1ccc(F)cc1)C(=O)Nc1ccc(C#N)c(C(F)(F)F)c1 [(R)-BICALUTAMIDE]
Not Active

New cases:
State the recorded IC50 for this entry: `Nc1ccn([C@@H]2CS[C@H](CO)O2)c(=O)n1`
Not Active

State the recorded IC50 for this entry: `CCOC(=O)[C@H](CCc1ccccc1)N[C@H]1CCc2ccccc2N(CC(=O)O)C1=O`
Not Active

State the recorded IC50 for this entry: CC(C)(C)c1ccc(C(O)CCCN2CCC(C(O)(c3ccccc3)c3ccccc3)CC2)cc1 (centres undefined)
Not Active

State the recorded IC50 for this entry: `CC(C)C[C@H](NC(=O)[C@@H](O)[C@H](N)Cc1ccccc1)C(=O)O`
Not Active

====

experiment: DRUGMATRIX: ATPase, Na+/K+ enzyme inhibition (substrate: ATP); assay type: tissue-based, Sus scrofa, Heart; conditions: Not Active = under 50% inhibition at 10 µM
test-readout: Ki

Recorded Ki, per entry:
State the recorded Ki for this entry: C[C@]12CC[C@@H]3c4ccc(OC(=O)c5ccccc5)cc4CC[C@H]3[C@@H]1CC[C@@H]2O [ESTRADIOL BENZOATE]
Not Active

State the recorded Ki for this entry: `C[C@]12CC[C@@H]3c4ccc(O)cc4CC[C@H]3[C@@H]1CC[C@@H]2O`
Not Active

State the recorded Ki for this entry: Cc1nccn1CC1CCc2c(c3ccccc3n2C)C1=O (configuration not stated)
Not Active

State the recorded Ki for this entry: C[N+](C)(C)CCO.[Cl-] [CHOLINE CHLORIDE]
Not Active

State the recorded Ki for this entry: `C/C=C/C[C@@H](C)[C@@H](O)[C@H]1C(=O)N[C@@H](CC)C(=O)N(C)CC(=O)N(C)[C@@H](CC(C)C)C(=O)N[C@@H](C(C)C)C(=O)N(C)[C@@H](CC(C)C)C(=O)N[C@@H](C)C(=O)N[C@H](C)C(=O)N(C)[C@@H](CC(C)C)C(=O)N(C)[C@@H](CC(C)C)C(=O)N(C)[C@@H](C(C)C)C(=O)N1C`
Not Active

State the recorded Ki for this entry: `CC(=O)Nc1cccc(O)c1`
Not Active

State the recorded Ki for this entry: `CC(=O)Nc1c(I)c(NC(C)=O)c(I)c(C(=O)O)c1I`
Not Active

State the recorded Ki for this entry: `Cc1ncc([N+](=O)[O-])n1CCO`
Not Active

State the recorded Ki for this entry: CCOC(=O)C(C)(C)Oc1ccc(Cl)cc1 [CLOFIBRATE]
Not Active

State the recorded Ki for this entry: `CCN[C@@H]1C[C@H](N)[C@@H](O[C@H]2OC(CN)=CC[C@H]2N)[C@H](O)[C@H]1O[C@H]1OC[C@](C)(O)[C@H](NC)[C@H]1O`
Not Active

New cases:
State the recorded Ki for this entry: `CCN(CC)CCOC(=O)c1ccc(N)cc1`
Not Active

State the recorded Ki for this entry: `COc1ccccc1C(=O)N1CCC(Cc2ccccc2)CC1`
Not Active

State the recorded Ki for this entry: CCOC(=O)C1=C(C)NC(C)=C(C(=O)OC)C1c1cccc([N+](=O)[O-])c1 (configuration not stated)
Not Active

State the recorded Ki for this entry: `Cc1cc2cc3c(C)cc(=O)oc3c(C)c2o1`
Not Active

State the recorded Ki for this entry: CC(=O)N1CCN(c2ccc(OCC3COC(Cn4ccnc4)(c4ccc(Cl)cc4Cl)O3)cc2)CC1 (configuration not stated)
Not Active
